- tested_system: Fructose-bisphosphate aldolase A (Oryctolagus cuniculus, UniProt P00883)
- Sequence (P00883 whole entry): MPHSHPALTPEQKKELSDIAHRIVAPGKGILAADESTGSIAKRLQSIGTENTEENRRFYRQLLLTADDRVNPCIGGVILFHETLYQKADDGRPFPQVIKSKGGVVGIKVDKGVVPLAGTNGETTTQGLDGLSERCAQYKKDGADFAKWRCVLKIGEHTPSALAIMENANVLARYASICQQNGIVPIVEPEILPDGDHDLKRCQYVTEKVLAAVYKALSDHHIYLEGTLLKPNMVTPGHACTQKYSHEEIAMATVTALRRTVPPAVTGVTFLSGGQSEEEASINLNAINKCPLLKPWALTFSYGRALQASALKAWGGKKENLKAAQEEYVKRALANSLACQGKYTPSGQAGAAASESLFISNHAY
value_type: IC50 (µM)

compound | IC50 (µM)
O=P(O)(O)OC[C@@H](O)[C@@H](O)[C@H](O)[C@H](O)COP(=O)(O)O | 8

P: CC[C@@](O)(COP(=O)(O)O)[C@@H](O)[C@H](O)[C@H](O)COP(=O)(O)O
Q: O=C(COP(=O)(O)O)[C@@H](O)[C@H](O)[C@H](O)COP(=O)(O)O (mixture of isomers)
R: CCCCCO[C@H](COP(=O)(O)O)[C@@H](O)[C@H](O)[C@H](O)COP(=O)(O)O
Request: Sort by IC50, descending. API: response body holds the labels in the requested order.
Response: P, R, Q
(P: 244 µM, R: 157 µM, Q: 13 µM)

###

- tested_system: Fructose-bisphosphate aldolase, glycosomal (Trypanosoma brucei brucei) (UniProt P07752)
- Sequence (whole entry): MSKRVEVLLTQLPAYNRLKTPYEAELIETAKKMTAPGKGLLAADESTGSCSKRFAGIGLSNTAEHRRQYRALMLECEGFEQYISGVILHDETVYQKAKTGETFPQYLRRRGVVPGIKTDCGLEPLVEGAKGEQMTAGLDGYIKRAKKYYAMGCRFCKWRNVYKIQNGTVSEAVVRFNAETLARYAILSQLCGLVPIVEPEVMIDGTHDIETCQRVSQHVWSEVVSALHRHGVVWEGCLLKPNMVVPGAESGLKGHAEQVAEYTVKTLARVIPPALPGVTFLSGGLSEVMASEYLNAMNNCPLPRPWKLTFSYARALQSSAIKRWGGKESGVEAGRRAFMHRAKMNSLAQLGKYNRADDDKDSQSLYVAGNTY
- assay_notes: Competitive inhibition of His-tagged recombinant Trypanosoma brucei fructose bis-phosphate aldolase expressed in Escherichia coli by double-reciprocal plot analysis
Calls of active or inactive are those of the source. No cut-off for these calls is given here.

compound | inhibition mode (competitive)
O=P(O)(O)OC[C@@H](O)[C@@H](O)[C@H](O)[C@@H](COP(=O)(O)O)OCCCc1ccccc1 | Active
CO[C@H](COP(=O)(O)O)[C@@H](O)[C@H](O)[C@H](O)COP(=O)(O)O | Active
CCO[C@H](COP(=O)(O)O)[C@@H](O)[C@H](O)[C@H](O)COP(=O)(O)O | Active

###

- tested_system: Fructose-bisphosphate aldolase, glycosomal (Trypanosoma brucei brucei, UniProt P07752)
- Sequence (P07752 whole entry): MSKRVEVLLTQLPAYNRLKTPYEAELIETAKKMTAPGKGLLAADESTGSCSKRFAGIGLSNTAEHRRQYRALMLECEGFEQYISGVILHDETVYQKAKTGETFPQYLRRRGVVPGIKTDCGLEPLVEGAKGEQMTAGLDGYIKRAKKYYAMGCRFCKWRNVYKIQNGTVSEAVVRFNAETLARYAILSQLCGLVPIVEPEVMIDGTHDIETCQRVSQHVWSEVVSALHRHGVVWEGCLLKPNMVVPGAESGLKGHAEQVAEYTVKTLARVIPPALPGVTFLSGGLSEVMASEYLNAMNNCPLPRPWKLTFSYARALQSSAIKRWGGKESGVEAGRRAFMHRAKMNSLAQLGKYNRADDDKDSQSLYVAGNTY
- assay_notes: Inhibition of His-tagged recombinant Trypanosoma brucei fructose bis-phosphate aldolase expressed in Escherichia coli using FBP as substrate after 5 to 15 mins
value_type: IC50 (µM)

compound | IC50 (µM)
O=C(COP(=O)(O)O)[C@@H](O)[C@H](O)[C@H](O)COP(=O)(O)O (mixture of isomers) | 10
CO[C@H](COP(=O)(O)O)[C@@H](O)[C@H](O)[C@H](O)COP(=O)(O)O | 2
CC[C@@](O)(COP(=O)(O)O)[C@@H](O)[C@H](O)[C@H](O)COP(=O)(O)O | 130

I: O=P(O)(O)OC[C@@H](O)[C@@H](O)[C@H](O)[C@@](O)(CCCc1ccccc1)COP(=O)(O)O
II: CCCCCO[C@H](COP(=O)(O)O)[C@@H](O)[C@H](O)[C@H](O)COP(=O)(O)O
Request: # argmax over IC50 for candidates I and II Return value: the label identifying the chosen record.
Response: II
